Values from PubChem BioAssay (NCI)

Quick reference: TGI of the listed items.
- Tested on: A549 NSCLC
- test_name: NCI tumour cell line growth inhibition, 48 h

Solved cases (8 shown):
compound	TGI
C=C(C)C12CC3CC/C(=N/O)C(C1)C3(N1CCOCC1)C/C2=N/O (stereo not drawn)	> 100 µM
Cc1ccccc1-n1c(C)nc(-c2ccccc2)cc1=O	> 100 µM
CC(=O)Oc1ccc(C(c2ccc(OC(C)=O)cc2)c2ccccn2)cc1	> 100 µM
COc1ccc(CCNCCCC2c3ccccc3-c3ccccc32)cc1OC	31.4 µM
COC(=O)C1=CC2OC1(C)CCC2=O (stereo not drawn)	> 100 µM
COc1cccc(-c2nc(-c3cnccn3)n(COCCO)n2)c1	> 100 µM
O=C(CCN1CCOCC1)C(=Cc1ccccc1)C(=O)CCN1CCOCC1	35.8 µM
O=C(O)C1=C(C(=O)Nc2ccc(NC(=O)C3=C(C(=O)O)C4C=CC3C4)cc2)C2C=CC1C2	> 100 µM

Input Cc1c(C)c(S(=O)(=O)N(CCCCCON)OCCCN)c(C)c2c1OC(C)(C)CC2 . Output TGI: 26.1 µM

Input O=C(CSC1=NNC2(C(=O)N1)c1ccccc1-c1ccccc12)NC(=S)Nc1ccccc1 . Output TGI: > 10 µM

Input CCN(CC)CCO/N=C1/C=C2CCC3C(CC[C@@]4(C)C3CC[C@]4(C)O)[C@@]2(C)CC1 (stereo partly drawn) . Output TGI: 45.9 µM

Input CCOC(=O)/C(C#N)=C/c1ccc2c(c1)CC1(C2)Cc2cc(CC)c(C(C)O)cc2C1 (stereo not drawn) . Output TGI: > 100 µM

Input CC(C)c1cc(OCC(O)CO)cc(C(C)C)c1 (stereo not drawn) . Output TGI: > 100 µM

Input Cc1ccc(S(=O)(=O)NCCCSCCSCCCN)cc1 . Output TGI: > 100 µM

Input c1ccc2cc3c(cc2c1)nc1ccccn13 . Output TGI: > 100 µM

Input Cc1cc(OCc2nnc3n2N=C(c2ccc(Cl)cc2Cl)CS3)ccc1Cl . Output TGI: > 100 µM

Input COc1ccccc1CNC(=O)[C@H](Cc1ccc(O)cn1)NC(C)=O . Output TGI: > 100 µM

Input CCOC(=O)c1c(C)c(C)n2c1NC(=O)C2 . Output TGI: > 100 µM

Input Cc1c(Sc2ccccc2)[n+](=O)c2cc(Cl)c(Cl)cc2n1[O-] . Output TGI: > 100 µM

Input O=[N+]([O-])c1ccc(S(=O)(=O)Cc2ccccc2)c2nonc12 . Output TGI: 83.8 µM

Input CCCCNC(=S)/N=C/c1c(O)c2ccccc2[nH]c1=O . Output TGI: > 10 µM

Input ClCc1ccc(Cn2cnc3c(Cl)nc(Cl)nc32)cc1 . Output TGI: 37.1 µM

Input O=C(O)/C=C/C(=O)N1C/C(=C\c2ccccc2)C(=O)/C(=C/c2ccccc2)C1 . Output TGI: 52 µM

====

As a worked illustration, we turn to GI50 data collected for HL-60(TB) leukemia.

Solved cases (8 shown):
CC1(C)OC(=O)C=C([O-])O1.CC1(C)OC(=O)C=C([O-])O1.CC[O-].CC[O-].[Ti+4] > 100 µM
COc1ccc(Nc2c3ccccc3nc3[nH]c4ccccc4c23)cc1 4.98 µM
O=C1NCCS(=O)(=O)/C1=C\C=C\c1cccc(C(F)(F)F)c1 2.4 µM
Cc1cccc2c(N)c3ccccc3nc12 2.41 µM
COc1ccc2nc(NC(=O)c3cccnc3Nc3cc(OC)c(OC)c(OC)c3)sc2c1 32.3 µM
Cc1ccc2c(=O)cc(-c3sc4ccccc4c3C)[nH]c2n1 18.5 µM
O=S(=O)(NCCNc1nccc(-c2c(-c3ccc(F)cc3)nc3sccn23)n1)c1ccccc1 16.9 µM
COc1ccc(Nc2cc(C)nc(N3CCN(c4ccnc5cc(Cl)ccc45)CC3)n2)cc1 3.12 µM

Input COc1cc(/C=C/C(=O)c2cccnc2Nc2ccc(F)cc2)cc(OC)c1OC . Output GI50: 2.4 µM

Input CC(C)CCN[C@@H]1CCc2cc(O)c(N3CC(=O)NS3(=O)=O)c(F)c2C1 . Output GI50: > 100 µM

Input CCN(CC)CCOc1ccc(C(=O)/C=C\c2ccc(Cl)cc2Cl)cc1 . Output GI50: 2.67 µM
